Where do the numbers come from? From patent US6194173A.

method notes: Binding of [32P]PI(3,4,5)P3 by GST fusion proteins spotted on nitrocellulose
condition parameters: 150 pmol protein on nitrocellulose; relative to GST
measurement type: binding of [^32 P]PI(3,4,5)P3 by GST fusion protein

{"molecule": "N-terminus of GRP: GST fusion protein containing residues 5 to 71 (protein, UniProt O08967 5-71, looked up, fragment, GST fusion) GGGEGGSVPEDLSLEEREELLDIRRRKKELIDDIERLKYEIAEVMTEIDNLTSVEESKTTQRNKQIA", "result": "No significant binding"}
{"molecule": "GRP Sec7 domain: GST fusion protein containing residues 52 to 260 (Sec7 domain) (protein, UniProt O08967 52-260, looked up, fragment, Sec7 domain GST fusion) IDNLTSVEESKTTQRNKQIAMGRKKFNMDPKKGIQFLIENDLLQSSPEDVAQFLYKGEGLNKTVIGDYLGERDDFNIKVLQAFVELHEFADLNLVQALRQFLWSFRLPGEAQKIDRMMEAFASRYCLCNPGVFQSTDTCYVLSFAIIMLNTSLHNHNVRDKPTAERFITMNRGINEGGDLPEELLRNLYESIKNEPFKIPEDDGNDLTH", "result": "No significant binding"}
